- subjectOfTest: GST-Rok (full length) (Bacillus subtilis subsp. subtilis str. …, UniProt O34857 1-191)
- Sequence: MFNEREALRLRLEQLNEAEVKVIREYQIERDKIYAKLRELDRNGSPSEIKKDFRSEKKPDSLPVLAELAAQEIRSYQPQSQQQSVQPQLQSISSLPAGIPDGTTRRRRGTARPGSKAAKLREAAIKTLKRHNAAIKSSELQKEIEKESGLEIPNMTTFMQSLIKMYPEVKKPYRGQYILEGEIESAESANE
- experimentNotes: protein binding microarray; high values mean tight binding
- conditionContext: protein: recombinant; tags: GST (pTH5325, pDEST15-Magic modified); dsDNA, one strand shown
Whole data set: some 33,000 sequences, median “e-score” near -0.037, cut for the highest 2% near 0.34. The list comes from a sample in which the highest values are over-represented; it also holds close analogues and randomly drawn sequences.
binding signal listing for selected sequences.
# number only, unit E-score dropped from output

Task: Using known records, supply binding signal for CTATCCTA
Result: 0.0781

Task: Using known records, supply binding signal for AACTACAA
Result: 0.34

Next:
Task: Using known records, supply binding signal for TAAGCCTA
Result: -0.0764

Task: Using known records, supply binding signal for AGTGAAGA
Result: -0.00169

Task: Using known records, supply binding signal for ATACTGTC
Result: 0.0898

Task: Using known records, supply binding signal for AACCCAAC
Result: 0.212

====

- subjectOfTest: GST-Rok (full length) (Bacillus subtilis subsp. subtilis str. …, UniProt O34857 1-191)
- Sequence: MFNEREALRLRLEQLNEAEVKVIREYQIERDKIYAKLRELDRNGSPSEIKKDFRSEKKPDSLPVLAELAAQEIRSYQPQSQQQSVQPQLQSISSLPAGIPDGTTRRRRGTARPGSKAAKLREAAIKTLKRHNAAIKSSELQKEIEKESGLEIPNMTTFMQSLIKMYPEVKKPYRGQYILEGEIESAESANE
- experimentNotes: protein binding microarray; Rok is a gene silencer of Bacillus subtilis; high values mean tight binding
- conditionContext: protein: recombinant; tags: GST (pTH5325, pDEST15-Magic modified); dsDNA, one strand shown
In all, about 33,000 sequences were measured (“e-score”: median about -0.037, highest 2% from about 0.34 on). Many of the other results were omitted from the sample, so the highest values are more common in it than they were.
binding signal listing for selected sequences.
# number only, unit E-score dropped from output

Known binding signal results, listed for orientation:
Task: System GST-Rok (full length) (Bacillus subtilis subsp. subtilis str. …, UniProt O34857 1-191). Read-out binding signal. Item CCAGTATA . Report value.
Result: 0.235

Task: System GST-Rok (full length) (Bacillus subtilis subsp. subtilis str. …, UniProt O34857 1-191). Read-out binding signal. Item AGATATCC . Report value.
Result: -0.0591

Task: System GST-Rok (full length) (Bacillus subtilis subsp. subtilis str. …, UniProt O34857 1-191). Read-out binding signal. Item CTAGTATA . Report value.
Result: 0.409

Task: System GST-Rok (full length) (Bacillus subtilis subsp. subtilis str. …, UniProt O34857 1-191). Read-out binding signal. Item CTATATAC . Report value.
Result: 0.341

# ---- query sequence ----
Task: System GST-Rok (full length) (Bacillus subtilis subsp. subtilis str. …, UniProt O34857 1-191). Read-out binding signal. Item ACATAACC . Report value.
Result: 0.0404
